Where these numbers come from: PubChem BioAssay (NCI)

# Experimental protocol: NCI Yeast Anticancer Drug Screen. Data for the sgs1 mgt1 strain (AID 161);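 further: 0% = growth of cultures given vehicle only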
# Measurement context: S. cerevisiae sgs1 mgt1 strain, at 50.0 µM, hits give high values
This is part of a sample that, as a whole, favours compounds with a hit. Of some 79,000 tested, about 15% had one in any assay.
Metric: growth inhibition (%)
One number for each entry, in %.

# example entries with known answers
CCCCNCc1c(O)ccc2ccccc12
99.1
OCCc1ccc(-n2cnc3c(Nc4ccc(Cl)cc4)ncnc32)cc1
44.8
O[C@H]1c2cccn2-c2ccccc2S[C@H]1c1ccccc1
98.8
O=[N+]([O-])c1ccc(C2=C[P+](c3ccccc3)(c3ccccc3)C=C(c3ccccc3)O2)cc1
85.2
C[n+]1c(-c2ccc(/C=N\NC(=O)c3ccc(C(=O)N/N=C/c4ccc(-c5cn6ccsc6[n+]5C)cc4)cc3)cc2)cn2ccsc21
84.5
CCOC(=O)/C(=C\c1ccc([N+](=O)[O-])cc1)C(C)=O
92.5

The following compounds each have a reported value; give each one's growth inhibition.
1. O=C(Oc1cc([N+](=O)[O-])ccc1Cl)Oc1cc([N+](=O)[O-])ccc1Cl
2. CCCCCCCCCCCCCC/C(=C/OCC[N+](C)(C)C)OC(C)=O (tested in a mixture with another compound)
3. Nc1c(Cl)[nH]c(C(F)(F)F)nc1=S
4. COc1cc2c(cc1OC(C)=O)C(=O)C(Br)(Br)CCC2

[98.6, 99.8, -2.45, 65.1]

====

# Experimental protocol: NCI Yeast Anticancer Drug Screen. Data for the mec2-1 strain (AID 157)
# Measurement context: S. cerevisiae mec2-1 strain, at 50.0 µM, hits give high values
About 79,000 compounds went through this panel and 15% of them were active in at least one assay; those are over-represented in the sample as a whole.
Criterion: growth inhibition meeting or surpassing 20%. Met: class 1. Not met: class 0.

I'd appreciate it if you could say whether COc1cc(OC)c(C/C=C/c2ccccc2)cc1O has growth inhibition at least equal to 20%.
class 0

I'd appreciate it if you could say whether Oc1cc2ccccc2c2c1ccc1ccccc12 has growth inhibition at least equal to 20%.
class 1

====

# Experimental protocol: NCI Yeast Anticancer Drug Screen. Data for the cln2 rad14 strain (AID 165);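 further: 0% = growth equal to vehicle treated cultures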
# Measurement context: S. cerevisiae cln2 rad14 strain, at 50.0 µM, hits give high values
About 79,000 compounds went through this panel and 15% of them were active in at least one assay; those are over-represented in the sample as a whole.
Please assign a class to every record based on measured growth inhibition, with ranges Low (below 30%), Medium (30% to below 70%), High (70% or more)

Nc1ccc(S(=O)(=O)NCc2nccs2)cc1
Medium
C/C(=N\O)c1ccc2cc(Br)c3ccccc3c2c1
High

Exam item: assign O=C(CNc1ccc([N+](=O)[O-])cc1)Nn1c(-c2ccccc2)nc2ccccc2c1=O to the correct category.
Medium

Exam item: assign OCc1c(-c2cccc3ccccc23)sc(-c2cccc3ccccc23)c1CO to the correct category.
High

Exam item: assign Clc1ccc(/C=N/Nc2c3ccccc3nc3ccccc23)c(Cl)c1 to the correct category.
Low

====

# Experimental protocol: NCI Yeast Anticancer Drug Screen. Data for the rad50 strain (AID 155);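 further: 0% = growth of vehicle-only cultures of the same strain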
# Measurement context: S. cerevisiae rad50 strain growth inhibition; at 50.0 µM (retest, dose inferred, filed as 5.0); hits give high values
The panel holds about 79,000 compounds, 15% with a hit somewhere; the sample as a whole holds those more often.
Criterion: growth inhibition meeting or surpassing 80%. Met: rule met. Not met: rule not met.

O=C1C=CC(=O)N1c1ccc(-c2ccc(N3C(=O)C=CC3=O)cc2)cc1
rule not met
CCCCCC/C=C1\CCC(CN2CCOCC2)C1=O (configuration not stated)
rule met
O=C1c2ccccc2CCC1C(O)(C(F)(F)F)C(F)(F)F (configuration not stated)
rule not met

I'd appreciate it if you could say whether CC(=O)C1(O)C(Br)CC2C3CC=C4CC(O)CCC4(C)C3CCC21C (configuration not stated) has growth inhibition at least equal to 80%.
rule met
